reported metric: melting point

>>> observed("C=CCOc1ccc(-c2ccc(Cl)nn2)c(OCC(O)CNC(C)(C)C)c1 (stereo not drawn)")
"93 to 94 °C"
>>> observed("Cc1nnc2n1-c1sc(C#CCn3c4c(c5ccccc53)CCCC4)cc1C(c1ccccc1Cl)=NC2")
"164 to 166 °C"
>>> observed("CS(=O)(=O)N[C@H]1C[C@H](C(=O)O)Nc2cc(Cl)cc(Cl)c21 (relative stereo)")
"194 to 195 °C"
>>> observed("C#Cc1cn(-c2c(Cl)cc(OC(F)(F)F)cc2Cl)nc1C#N")
"95.2 to 96 °C"
>>> observed("Cn1cc(-c2c(-c3ccccc3F)nn3ccncc23)ccc1=O")
"193 to 194 °C"
>>> observed("C[Si](C)(C)CCOCn1c(-c2cnn(-c3c(Cl)cc(C(F)(F)F)cc3Cl)n2)nc([N+](=O)[O-])c1Br")
"126 to 128 °C"
>>> observed("Nc1ccccc1-n1sc(-c2ccccc2)cc1=O")
"145 to 146 °C"
>>> observed("COc1ccc(NC(=O)c2cc(-c3ccc(F)cc3F)ccc2O)cc1OC")
"186 to 187 °C"
>>> observed("COc1cc(C)c(C(=O)CCCCCCCCCCCO)c(O)c1OC")
"82 °C"
>>> observed("O=c1c(-c2cccc(F)c2)c(CNc2ncnc3[nH]cnc23)oc2ccccc12")
"211 to 214 °C"
>>> observed("N#Cc1c(Cl)c(Cl)n(CC#CI)c1-c1ccc(Cl)c(Cl)c1")
"115 to 116 °C"
>>> observed("CSc1ccc2cc(Nc3ccc(O)cc3)ccc2c1")
"127 to 128 °C"
>>> observed("COc1cc(C(C)=O)c(OC)c2c1C(C)(C)CCC2(C)C")
"97 °C"
>>> observed("CC(=O)OC1CCC2(C)C(=CCC3C2CCC2(C)C(C(C)=O)=CCC32)C1 (stereo not drawn)")
"169 to 172 °C"
>>> observed("CCCCCCCCCCCCCCCCCCOc1ccc(OCCCOc2ccc(OCc3ccccc3)cc2)c(C(=O)N(CC(=O)O)CC(=O)O)c1")
"70 to 74 °C"
>>> observed("C=CCOC(=O)c1cc(C23CC4CC(CC(C4)C2)C3)c(OC)cc1F")
"101 to 102 °C"
>>> observed("CNc1cc(O)cc(O)c1")
"130 °C"
>>> observed("CCOC(=O)C(C)Oc1ccc(Oc2nnc3cc(Br)ccc3n2)cc1 (stereo not drawn)")
"104 °C"
>>> observed("N=C(N)c1ccc2cc(OC(=O)[C@H]3CC[C@H](CN)CC3)ccc2c1")
"147 °C"
>>> observed("CN1CCc2c(c3ccccc3n2CCc2nc(-c3ccncc3)cs2)C1")
"158 to 160 °C"
>>> observed("CC(=O)Oc1c(C)c(C)c2c(c1C)C(=O)CC(C)(COc1ccc(N)cc1)O2 (stereo not drawn)")
"177 to 178 °C"
>>> observed("CCS(=O)c1ccccc1S(=O)(=O)NC(=O)Nc1nc(OC)nc(OC)n1 (stereo not drawn)")
"165 °C"
>>> observed("CCc1c(-c2ccc(O)cc2)c2cc(COCCCN3CCCCC3)c3cccc1n32")
"176 to 178 °C"
>>> observed("C#CC1(OCc2cc(F)ccc2F)CCN(C(C)=O)CC1")
"90 to 93 °C"
>>> observed("Cc1cc(OC(=O)c2ccccc2)ccc1O")
"120 to 122 °C"
>>> observed("CCc1ccc(-c2coc3c(C)c(C)c(N)c(C)c23)cc1")
"68 to 69 °C"
>>> observed("NS(=O)(=O)c1ccc(-c2[nH]c3ccccc3c2-c2ccc(Cl)cc2)cc1")
"298 to 300 °C"
>>> observed("COc1cn(-c2cccc(N3CCOCC3)c2F)nc(-c2ccnn2-c2ccccc2)c1=O")
"187 to 189 °C"
>>> observed("OC(COc1ccc(-c2ccc(Br)cc2)cc1)CN1CCCC1 (stereo not drawn)")
"121 to 122 °C"
>>> observed("O=Cc1nc(C(Cl)Cl)cnc1N1C(=O)c2ccccc2C1=O")
"145 to 146 °C"
>>> observed("CC(=O)Nc1cc(C)cc(C=O)n1")
"202 °C"
>>> observed("NS(=O)(=O)c1ccc(CCN2CCC(N3CCc4ccccc43)CC2)cc1")
"207 to 210 °C"
>>> observed("CON=C(C#N)C(N)=O")
"170 to 172 °C"
